MEASURED_TARGET: wild type FGFR-4 (Homo sapiens (Human))
METHOD_SUMMARY: FGFR-4 wild type assay at Km (Caliper electrophoretic mobility shift)
Format: biochemical
CONDITIONS_USED: 400 uM ATP, 90 minutes, 25 C; read-out: FGFR4 IC50
pIC50: −log10 of the molar value.
// reported pIC50 for each item listed

Some entries whose results are on file:
C=CC(=O)Nc1cccc(C)c1Nc1ncc2cc(-c3c(Cl)c(OC)cc(OC)c3Cl)cc(OC)c2n1 : > 8.00
C=CC(=O)N(C)c1ncc2cc(-c3c(Cl)c(OC)cc(OC)c3Cl)c(=O)n(C)c2n1 : > 8.00
C=CC(=O)Nc1cccc(C)c1Nc1ncc2nc(-c3c(Cl)c(OC)cc(OC)c3Cl)c(=O)n(C)c2n1 : > 8.00
C=CC(=O)Nc1ccccc1Nc1ncc(C)c(N2CCN(C(=O)Nc3ccc(C#N)cc3)CC2)n1 : 6.00 to 7.00
C=CC(=O)Nc1cccc(F)c1Nc1ncc2cc(-c3c(Cl)c(OC)cc(OC)c3Cl)ccc2n1 [COMPOUND 27] : > 8.00
C=CC(=O)Nc1cccc(F)c1Nc1ncc2cc(-c3c(Cl)c(OC)cc(OC)c3Cl)ccc2n1 [COMPOUND 51] : 7.00 to 8.00

Here is the next item to consider.
Task item: Suppose we examine the compound C=CC(=O)Nc1cccc(C)c1Nc1ncc2cc(-c3c(Cl)c(OC)cc(OC)c3Cl)c(OC)cc2n1 ; what pIC50 value has been reported?
Reply: > 8.00

====

MEASURED_TARGET: wild type FGFR-4 (Homo sapiens (Human), UniProt P22455)
Sequence (P22455 22-802): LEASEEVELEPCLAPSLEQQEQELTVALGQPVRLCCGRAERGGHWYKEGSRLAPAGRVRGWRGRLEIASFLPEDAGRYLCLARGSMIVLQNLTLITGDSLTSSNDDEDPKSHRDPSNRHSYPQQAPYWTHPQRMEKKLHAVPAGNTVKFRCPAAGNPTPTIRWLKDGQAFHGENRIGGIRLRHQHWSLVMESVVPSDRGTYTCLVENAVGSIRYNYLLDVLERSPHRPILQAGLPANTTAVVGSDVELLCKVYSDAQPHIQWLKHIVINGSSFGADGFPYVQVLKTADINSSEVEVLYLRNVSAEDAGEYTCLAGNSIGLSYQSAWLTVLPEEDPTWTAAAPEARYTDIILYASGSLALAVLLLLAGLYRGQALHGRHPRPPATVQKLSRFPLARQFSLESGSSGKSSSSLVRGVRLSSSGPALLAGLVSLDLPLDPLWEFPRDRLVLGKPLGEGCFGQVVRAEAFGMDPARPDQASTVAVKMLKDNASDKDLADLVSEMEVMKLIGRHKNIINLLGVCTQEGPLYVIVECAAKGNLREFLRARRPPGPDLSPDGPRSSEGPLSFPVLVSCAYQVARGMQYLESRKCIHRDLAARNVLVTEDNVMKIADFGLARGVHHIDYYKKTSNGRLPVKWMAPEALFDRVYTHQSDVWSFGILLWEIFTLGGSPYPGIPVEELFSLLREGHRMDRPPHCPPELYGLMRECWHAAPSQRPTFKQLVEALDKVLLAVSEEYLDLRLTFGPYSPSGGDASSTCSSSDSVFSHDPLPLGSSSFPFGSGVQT
METHOD_SUMMARY: FGFR-4 wild type assay at Km (Caliper electrophoretic mobility shift)
Assay type: biochemical
CONDITIONS_USED: read-out: FGFR4 IC50
pIC50: −log10 of the molar value.
READOUT_TYPE: pIC50

Task item: Form field - read-out: pIC50; system: wild type FGFR-4 (Homo sapiens (Human), UniProt P22455); submitted item: C=CC(=O)Nc1cccc(C)c1Nc1ncc2cc(-c3c(Cl)c(OC)cc(OC)c3Cl)cc(F)c2n1 [COMPOUND 34]
Reply: > 8.00

====

MEASURED_TARGET: wild type FGFR-4 (Homo sapiens (Human), UniProt P22455)
METHOD_SUMMARY: FGFR-4 wild type assay at Km (Caliper electrophoretic mobility shift)
Format: biochemical
CONDITIONS_USED: [IC50 for FGFR1]/[IC50 for FGFR4]
READOUT_TYPE: Ratio FGFR1/FGFR4

Some entries whose results are on file:
C=CC(=O)N(C)c1ncc2c(n1)N(C)C(=O)N(c1cc(OC)cc(OC)c1)C2 [COMPOUND 5] : A (the ratio is >500)
C=CC(=O)Nc1cc(Cl)cc(C)c1Nc1ncc2cc(-c3c(Cl)c(OC)cc(OC)c3Cl)ccc2n1 [COMPOUND 49] : A (the ratio is >500)
C=CC(=O)Nc1cccc(C)c1Nc1ncc2cc(-c3c(Cl)c(OC)cc(OC)c3Cl)cc(OC)c2n1 [COMPOUND 41] : A (the ratio is >500)
C=CC(=O)N(C)c1ncc2cc(-c3c(Cl)c(OC)cc(OC)c3Cl)ccc2n1 [COMPOUND 7] : A (the ratio is >500)

Here is the next item to consider.
Task item: Suppose we examine the compound C=CC(=O)N(CCCCN(CC)CC)c1ncc2cc(-c3c(Cl)c(OC)cc(OC)c3Cl)c(NC(=O)NC(C)(C)C)nc2n1 [COMPOUND 55] ; what Ratio FGFR1/FGFR4 value has been reported?
Reply: A (the ratio is >500)

All values here come from patent US10196436B2.
